All values here come from PubChem BioAssay.

- Tested on: Hepatitis C virus NS3 helicase
- PROTOCOL_DETAILS: blockers of NS3h binding to ssDNA – biochemical, fluorescence polarization, LOPAC1280 library, primary screen (AID 687035)
- TEST_CONDITIONS: Purified HCV NS3 helicase, Cy5-dT15 ssDNA binding fluorescence polarization; stronger effect = higher value; concentration not given here
ASSAY_METRIC: inhibition (%)
Kindly provide the numeric value in % only, without the unit symbol.

The following molecules have reported results that may help.
CC(=O)SC1CC2=CC(=O)CC[C@]2(C)C2CC[C@@]3(C)C(CC[C@@]34CCC(=O)O4)C12 (some centres not stated)	-4
N[C@H](C(=O)O)[C@H](Cc1ccccc1)C(=O)O	-1
O=C1CCC(c2ccc(-n3ccnc3)cc2)=NN1	-1
N[C@H](CCCP(=O)(O)O)C(=O)O	-1
COc1cccc(C(=O)NCCN2CCN(c3ccc(Cl)cc3)CC2)c1	0

Lookup result for O=C(O)CCC(C(=O)O)N1C(=O)c2ccccc2C1=O (configuration not stated) ; measured inhibition: -4

The reported inhibition of the molecule O=C(O)/C=C/C(O)c1ccc(Cl)cc1 (configuration not stated) was 1

// recorded inhibition for CN1CC(O)C(O)C(O)C1CO (configuration not stated) : -3

Just so you know, measured inhibition for CCCn1c(=O)c2[nH]c(-c3ccc(S(=O)(=O)O)cc3)nc2n(CCC)c1=O came out at 0

Measured inhibition, C[C@H](Cc1ccccc1)Nc1ncnc2c1ncn2[C@@H]1O[C@H](CO)[C@H](O)C1O (some centres not stated) : -8

// field: inhibition; key: NC(CCCP(=O)(O)O)C(=O)O (configuration not stated) ; value = -3

The molecule listed as NC1(C(=O)O)CCCCC1 has a reported inhibition of -2

====

- PROTOCOL_DETAILS: galactose survival enhancers in mitochondrial complex I cybrids – cell-based, galactose medium, ATP luminescence, primary screen (AID 1645843);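 further: positive z means more ATP and so rescue of galactose-driven cybrid death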
- TEST_CONDITIONS: complex I mutant cybrid cells, 72 h, stronger effect = higher value
# reported z-score; entries follow
Answer as a number with no unit attached.

COc1cccc(COC2CN(CCc3ccccc3)C(=O)CN(C(=O)CN3CCOC3=O)C2)c1 (stereo unspecified)	0.48
O=c1[nH]c(=O)c2[nH]cnc2[nH]1	-0.02
O=C(Cn1nc(Cc2ccccc2)c2ccccc2c1=O)NCCc1ccco1	-0.33
CCOc1ccccc1-c1ncnc2sc(C)c(C)c12	0.07
C=CCN1CCc2c(cc(O)c(O)c2Br)[C@@H](c2ccccc2)C1	-1.42

Entry Nc1nc(Nc2ccccc2)nc2c1ncn2[C@@H]1O[C@H](CO)[C@H](O)C1O (stereo partly specified) ; z-score = 0.02

====

- PROTOCOL_DETAILS: MELAS cybrid and Rieske KO viability enhancers – cell-based, MELAS cybrids, Rieske KO mouse fibroblasts, CellTiter-Glo, primary screen (AID 1508586);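 further: z relative to plate mean and SD of compound and empty wells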
- TEST_CONDITIONS: Rieske KO mouse fibroblast survival, low glucose, CellTiter-Glo 72 h
Please mark condition met if the recorded z-score is equal to or greater than -0.04, and condition not met if it falls below.

Cc1ccc2c(-c3ncnc4scc(C)c34)cccc2n1	condition not met

Q: Can CC1OC(O)C(O)C(O)C1O (stereo not drawn) be said to have z-score at or above -0.04?
A: condition not met

Q: Is the recorded value of z-score equal to or greater than -0.04 for this compound? CCOC(=O)C(CCc1ccccc1)NC(C)C(=O)N1CCCC1C(=O)O (stereo not drawn)
A: condition not met
